System: BDF1 mice, P388 leukemia ip, median survival T/C
assay method text: NCI In Vivo Anticancer Drug Screen. Data for tumor model P388 Leukemia (intraperitoneal) in B6D2F1 (BDF1) mice
assay conditions: endpoint: median survival time; dose: 50.0 mg/kg/injection; schedule: Q01DX009 (ip); vehicle: saline
Inconclusive results and toxic doses are left out. The calls were made as follows: active = survival T/C of 150% or more; inactive = T/C below 125% in these data. Non-standard residues stand in square brackets, D forms with d. Residues, ends and D or L forms follow the SMILES beside them. *: point of attachment. NMeY = CN[CH](Cc1ccc(O)cc1)C(=O)O; Bn = c1ccc(C*)cc1
Return exactly one item of active, inactive

Completed entries (count: 2):
molecule | class name
O=C(Oc1ccc([N+](=O)[O-])cc1)c1ccc(C[n+]2ccccc2)cc1 | inactive
CN1CCC(C=C2c3ccccc3Sc3ccccc32)C1 (configuration not stated) | inactive

Problem: Can you look up the reported call for CNCCN(C)CCN(C)Cc1ccc(OC)cc1 for me?
Result: inactive

Problem: // outcome(item) with item = NC1=NNC(N)=NN1
Result: inactive

Problem: Which outcome was assigned to CCN(CC)CC(C)OC(=O)c1ccc(N)cc1 (configuration not stated) in this test?
Result: inactive

Problem: Dear colleague, could you share the recorded outcome for Cc1ccc(S(=O)(=O)O)cc1 when you have a moment?
Result: inactive

Problem: Could you please tell me the result logged for C=C1C(=O)O[C@@H]2C[C@@H](C)[C@@H]3[C@@H](OC4OC(COC(C)=O)C(O)C(O)C4O)CC(=O)[C@@]3(C)C[C@H]12 (some centres not stated) in this assay?
Result: inactive

Problem: Tell me the assay call for Nc1ccc(Cl)c(Cl)c1 please.
Result: inactive

Problem: Recorded test call requested for C1CCC(=[N+]2CCCC2)CC1
Result: inactive

Problem: What call does the record list for COc1ccc(/C=C/C(=O)c2ccc3cc(OC)c(OC)cc3c2)cc1OC ?
Result: inactive

Problem: Tell me the recorded outcome of this test for NC(N)=NCCCCCC(=O)Oc1ccc([N+](=O)[O-])cc1 .
Result: inactive

Problem: // outcome(item) with item = CNC1C(O)C(NC)C2OC3(O)C(=O)CC(C)OC3OC2C1O (configuration not stated)
Result: inactive

Problem: Test call for this molecule, please: COc1ccc2c(c1)/C(=C/CCN(C)C)c1ccccc1S2
Result: inactive

Problem: What call does the record list for CNC(Cc1ccc(OCc2ccccc2)cc1)C(=O)NC(CC(C)C)C(=O)OC (configuration not stated) (H-[NMeY](Bn)-Leu-OMe; configuration not given here) ?
Result: inactive

Problem: Returns: the outcome recorded for Cc1c(C(=O)O)cc2n(c1=O)Cc1cc3ccccc3nc1-2 in this assay.
Result: inactive

Problem: Each molecule tested received a call. Report the one for CC(=N\O)/C(C)=N/O.CC(=N\O)/C(C)=N/O.[Cl][Rh][Cl] .
Result: inactive

Problem: Kindly provide the recorded test outcome for the following molecule: CCN(CC)CCSC(=O)C(O)(c1ccccc1)C1CCCC1 (configuration not stated)
Result: inactive

Problem: Given CCOC(=O)/C(C#N)=N\O , state the outcome it received in this test.
Result: inactive

Problem: // outcome(item) with item = CC1COB(c2ccccc2)OCC(C)N1CNC(=O)C1=C(O)C2(O)C(O)=C3C(=O)C4C(O)=CC=CC4C(C)(O)C3CC2C(N(C)C)C1=O (configuration not stated)
Result: inactive

Problem: Could you kindly confirm the outcome this assay logged for COC(=O)Nc1cccc(-c2nc3ccc(NC(=O)OC)cc3c(=O)n2-c2ccccc2)c1 ?
Result: active

Problem: Called result for O=C1c2ccccc2C(=O)c2c(O)c(N3CCOCC3)cc(O)c21
Result: inactive

Problem: Each molecule tested received a call. Report the one for CC(C)(C)OC(=O)NC(CCSCC(=O)O)C(N)=O (configuration not stated) .
Result: inactive

Problem: # lookup: test call for O=C1OC2CC=CCC2CC1O (configuration not stated)
Result: inactive

Problem: Which outcome was entered for the molecule NCCC(O)C(=O)NC1CC(N)C(OC2OC(CO)C(O)C(O)C2N)C(OC2OC(CO)C(O)C2O)C1O (configuration not stated) in this test?
Result: inactive

Data origin, for the record: PubChem BioAssay AID328
